Target: human 5-hydroxytryptamine-2C (h-5-HT2C) receptor (Homo sapiens, UniProt P28335)
Construct: expressed in transfected cells; host or cells: Chinese Hamster Ovary (CHO) cells; membrane preparation
Sequence (P28335 33-458): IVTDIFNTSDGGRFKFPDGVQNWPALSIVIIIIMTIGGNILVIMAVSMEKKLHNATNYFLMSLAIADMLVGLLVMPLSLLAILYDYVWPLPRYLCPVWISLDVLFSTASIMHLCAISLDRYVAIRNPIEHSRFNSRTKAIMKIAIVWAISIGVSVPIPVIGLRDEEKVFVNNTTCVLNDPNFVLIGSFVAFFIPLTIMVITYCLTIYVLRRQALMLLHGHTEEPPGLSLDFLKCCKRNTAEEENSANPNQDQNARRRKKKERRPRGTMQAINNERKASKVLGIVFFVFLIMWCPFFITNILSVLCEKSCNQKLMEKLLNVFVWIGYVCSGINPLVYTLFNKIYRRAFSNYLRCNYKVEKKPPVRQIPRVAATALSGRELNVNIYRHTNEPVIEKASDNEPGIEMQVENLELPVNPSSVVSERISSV
Experiment: [125I]DOI binding to membranes of CHO cells expressing h-5-HT2C receptor
readout name: pKi
The scale used: pKi is minus the common logarithm of the concentration in molar units.

compound | target of assay | pKi
CCc1cn2ccccc2c1CCN | human 5-hydroxytryptamine-2C (h-5-HT2C) receptor (Homo sapiens, UniProt P28335) | 6.92
CCc1c(CCN)c2ccccn2c1CC | human 5-hydroxytryptamine-2C (h-5-HT2C) receptor (Homo sapiens, UniProt P28335) | 7.46

Query: pKi; subject: CCCc1c(C)c(CC(C)N)c2ccccn12 (centres unmarked)
7.77

Query: pKi; subject: `NCCc1c2c(n3ccccc13)CCCC2`
7.01

Query: pKi; subject: `CCCc1c(CC)c(CCN)c2ccccn12`
7.68

---

Biological target: human 5-hydroxytryptamine-2C (h-5-HT2C) receptor (Homo sapiens, UniProt P28335)
Construct: expressed in transfected cells; host or cells: Chinese Hamster Ovary (CHO) cells; membrane preparation
Assay: [125I]DOI binding to membranes of CHO cells expressing h-5-HT2C receptor
Conditions: reference compounds; [125I]DOI radioligand, CHO cell membranes; read-out: Ki (95% confidence interval)
readout name: Ki
Dear colleague, please send the value followed by its unit.

Query: Ki; subject: CSc1ccc2c(c1)C(N1CCN(C)CC1)Cc1ccccc1S2 (stereo not shown) [Methiothepin, reference compound]
4.6 nM

---

Molecular target: human 5-hydroxytryptamine-2C (h-5-HT2C) receptor (Homo sapiens)
Construct: expressed in transfected cells; host or cells: Chinese Hamster Ovary (CHO) cells; membrane preparation
Test: [125I]DOI binding to membranes of CHO cells expressing h-5-HT2C receptor
Details: read-out: 5-HT2C Affinity Ki
Form field: pKi (one value per entry).
The scale used: pKi is minus the common logarithm of the concentration in molar units.

# example entries with known answers
compound | readout name | endpoint value
NCCc1c(-c2ccccc2)cn2ccccc12 | pKi | 6.57
CCCc1c(C)c(CC(N)CC)c2ccccn12 (stereo not shown) | pKi | 6.34
CCCNCCc1c(CC)c(CCC)n2ccccc12 | pKi | 6.68
CCCc1c(CC)c(CC(C)N)c2ccccn12 (stereo not shown) | pKi | 6.91
CCNCCc1c(CC)c(CC)n2ccccc12 | pKi | 6.64
CCc1c(-c2ccccc2)c(CCN)c2ccccn12 | pKi | 6.93

Query: pKi; subject: `CCCc1c(-c2ccccc2)c(CCN)c2ccccn12`
7.27

---

Counter-ions that a name gives are not always drawn.
Form field: melting point (one value per entry).

# example entries with known answers
molecule | endpoint value
CCc1c(-c2ccccc2)c(CCN)c2ccccn12 (as salt: fumaric acid salt) | 173 to 176 °C
CCNCCc1c(CC)c(CC)n2ccccc12 (as salt: fumaric acid salt) | 154 to 158 °C
CCc1c(CCN)c2ccccn2c1CC (as salt: fumaric acid salt) | 166 to 171 °C
CCCc1c(CC)c(CCN)c2ccccn12 (as salt: fumaric acid salt) | 154 to 158 °C
CCCc1c(CC)c(CC(C)N)c2ccccn12 (centres unmarked) (as salt: fumaric acid salt) | 184 to 186 °C

Query: melting point; subject: CCc1cn2ccccc2c1CCN (as salt: fumaric acid salt)
170 to 175 °C (dec.)

Query: melting point; subject: CCCc1c(-c2ccccc2)c(CCN)c2ccccn12 (as salt: fumaric acid salt)
169 to 172 °C

Query: melting point; subject: CCCc1c(C)c(CC(C)N)c2ccccn12 (centres unmarked) (as salt: fumaric acid salt)
147 to 150 °C

---

Biological target: human 5-HT2C receptor (Homo sapiens, UniProt P28335)
Experiment: 5-HT2C receptor-stimulated calcium mobilization (FLIPR) in CHO cells
Settings: calcium mobilization, CHO cells; read-out: 5-HT2C Function EC50
Form field: EC50 (one value per entry).
Express it in nM; write the number only.

# example entries with known answers
compound | target of assay | unit tag | EC50
CCCc1c(C)c(CC(C)N)c2ccccn12 (stereo not drawn) [Example 10] | human 5-HT2C receptor (Homo sapiens, UniProt P28335) | nM | 46
CCc1c(CCN)c2ccccn2c1CC [Example 5, 2-(2,3-diethylindolizin-1-yl)ethylamine] | human 5-HT2C receptor (Homo sapiens, UniProt P28335) | nM | 11

Now look at this entry.
Query: EC50; subject: CCCc1c(CC)c(CCN)c2ccccn12 [Example 7]
19

Source of measurements: patent US7608626B2
